Assay: Pharmacokinetics of resveratrol-containing particles in orally dosed Sprague-Dawley rats
Format: in vivo
Conditions: rat, plasma, po, 20 mg/kg
assay_readout: Cmax
Units required after the number.

Param item = Oc1ccc(C=Cc2cc(O)cc(O)c2)cc1 [Unencapsulated Resveratrol, Resveratrol] ; retrieve measured Cmax.
0.0824 µg/mL

---

Assay: Pharmacokinetics of resveratrol-containing particles in orally dosed Sprague-Dawley rats
Format: in vivo
Settings: rat, plasma, oral, 20 mg/kg
assay_readout: concentration at 0.5 h (ng/mL)
Give bare numbers, in ng/mL.

Param item = "Oc1ccc(C=Cc2cc(O)cc(O)c2)cc1" ; retrieve measured concentration at 0.5 h.
78.4

---

Test: Pharmacokinetics of resveratrol-containing particles in orally dosed Sprague-Dawley rats
Type: in vivo
Settings: rat, plasma, oral, 20 mg/kg
Description: Parameters were estimated using Watson pharmacokinetic software 7.4.2 (Thermo Electron Corporation) using a non-compartmental approach consistent with the various routes of administration. […] As no dose formulation samples were analyzed, the nominal calculated dose for active ingredient (20 mg/kg, as per the study protocol, was used for dose-normalization purposes). The area under the test item concentration versus time curve (AUC) was calculated using the linear-log linear trapezoidal method. […]
assay_readout: concentration at 1 h (ng/mL)
One number for each entry, in ng/mL.

Param item = "Oc1ccc(C=Cc2cc(O)cc(O)c2)cc1" ; retrieve measured concentration at 1 h.
29.3
